study_system: recombinant human Mcl-1 (residues 171-327) / Bim interaction (Homo sapiens (Human))
Sequence (Q07820 171-327): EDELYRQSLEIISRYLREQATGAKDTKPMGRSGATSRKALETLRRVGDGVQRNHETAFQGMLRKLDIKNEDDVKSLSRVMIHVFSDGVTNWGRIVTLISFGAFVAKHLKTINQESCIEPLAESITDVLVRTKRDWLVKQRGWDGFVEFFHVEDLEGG
experiment: biochemical
Type: binding
condition_info: TR-FRET, Mcl-1(171-327) / biotin-Bim (51-76); read-out: Mcl-1 HTRF IC50
pIC50: −log10 of the molar value.

{"compound": "C[C@@H]1[C@@H](C)C/C=C/C(O)([C@H]2OCCN(C)C2=O)[C@@H]2CC[C@H]2CN2C[C@@]3(CCCc4cc(Cl)ccc43)COc3ccc(cc32)C(=O)NS1(=O)=O (single isomer, unassigned)", "pIC50": 9.74}
{"compound": "C=CC[C@]1(O)CCC[C@H](C)[C@@H](C)S(=O)(=O)NC(=O)c2ccc3c(c2)N(C[C@@H]2CC[C@H]21)C[C@@]1(CCCc2cc(Cl)ccc21)CO3 (single isomer, unassigned) [Example 100273]", "pIC50": 8.25}
{"compound": "C[C@@]1(O)CCCCCS(=O)(=O)NC(=O)c2ccc3c(c2)N(C[C@@H]2CC[C@H]21)C[C@@]1(CCCc2cc(Cl)ccc21)CO3", "pIC50": 8.21}
{"compound": "C[C@@H]1[C@@H](C)C/C=C/[C@@](O)(c2cccnc2)[C@@H]2CC[C@H]2CN2C[C@@]3(CCCc4cc(Cl)ccc43)COc3ccc(cc32)C(=O)NS1(=O)=O", "pIC50": 9.09}
{"compound": "C[C@@H]1[C@@H](C)C/C=C/C(O)(Cc2nccn2C)[C@@H]2CC[C@H]2CN2C[C@@]3(CCCc4cc(Cl)ccc43)COc3ccc(cc32)C(=O)NS1(=O)=O (stereo in doubt) [Example 100523]", "pIC50": 9.09}
{"compound": "C[C@@H]1[C@@H](C)C[C@H]2C=CC[C@](O)(C2)[C@@H]2CC[C@H]2CN2C[C@@]3(CCCc4cc(Cl)ccc43)COc3ccc(cc32)C(=O)NS1(=O)=O", "pIC50": 9.25}
{"compound": "COCCN(C)S(=O)(=O)C[C@]1(O)CCC[C@H](C)[C@@H](C)S(=O)(=O)NC(=O)c2ccc3c(c2)N(C[C@@H]2CC[C@H]21)C[C@@]1(CCCc2cc(Cl)ccc21)CO3 [Example 100166]", "pIC50": 8.75}
{"compound": "COCCN(C)C(=O)C[C@]1(OC)/C=C/C[C@H](C)[C@@H](C)S(=O)(=O)NC(=O)c2ccc3c(c2)N(C[C@@H]2CC[C@H]21)C[C@@]1(CCCc2cc(Cl)ccc21)CO3", "pIC50": 10.04}
{"compound": "CO[C@]1(CC(=O)N2CC[C@@H](N(C)C)C2)/C=C/C[C@H](C)[C@@H](C)S(=O)(=O)NC(=O)c2ccc3c(c2)N(C[C@@H]2CC[C@H]21)C[C@@]1(CCCc2cc(Cl)ccc21)CO3", "pIC50": 9.73}
{"compound": "COCCN(C)C1=NO[C@@]2(CCC[C@H](C)[C@@H](C)S(=O)(=O)NC(=O)c3ccc4c(c3)N(C[C@@H]3CC[C@H]32)C[C@@]2(CCCc3cc(Cl)ccc32)CO4)C1", "pIC50": 9.65}
